- Tested on: HOP-18
- Assay details: NCI tumour cell line growth inhibition, 48 h
Active and inactive are the calls of the source. No stated cut-off is given here; in the data, active = GI50 up to about 1.1 µM and inactive = higher.
For each record, write down the corresponding GI50.

Molecule	GI50
Nc1nc(N)c(CCCCc2ccc([N+](=O)[O-])cc2)c(N)n1	> 100 µM (inactive)
O=C(O)Cn1c(=O)[nH]c(=O)c2[nH]cnc21	> 100 µM (inactive)

// each molecule listed below needs its GI50
1. COCOC1CCCC[C@@]1(OCCOCCO[C@@]1(c2ccccc2)CCCC[C@H]1OCOC)c1ccccc1 (stereo partly drawn)
2. CN(C)CCC(=O)N1C/C(=C/c2ccccc2)C(=O)/C(=C\c2ccccc2)C1
3. COc1ccc([C@H]2c3cc4c(cc3OC(O)(CO)[C@H]2C(=O)O)OCO4)c(OC)c1.COc1ccc([C@H]2c3cc4c(cc3OC3(O)COC(=O)[C@@H]23)OCO4)c(OC)c1 (stereo partly drawn)
4. N/C(=N\O)N/N=C\c1ccc(O)c(O)c1O

> 100 µM (inactive)
4.46 µM (inactive)
> 100 µM (inactive)
> 100 µM (inactive)

// each listed molecule needs a value for GI50
1. CC1(C)OC2C(O1)[C@H]1OC(C(Cl)(Cl)Cl)=N[C@H]1C(I)[C@H]2N1C(=O)c2ccccc2C1=O (stereo partly drawn)
2. CCOC(=O)C=C1CCN(C(=O)c2ccccc2)CC1
3. S=c1sc2c(s1)SC(c1ccccc1)CS2 (stereo not drawn)
4. NCCCC1NC(=O)/C(=C(O)/C=C/C2CCC[C@@H]2CC2SCCS2)C1=O (stereo partly drawn)
5. CC(=O)OCC1OC(n2c(=S)n(-c3ccc([N+](=O)[O-])cc3)c(=O)c3ccccc32)C(OC(C)=O)C(OC(C)=O)C1OC(C)=O (stereo not drawn)
6. COc1cc2c(c(OC)c1)C1(CC(CC#N)C2)SCCS1 (stereo not drawn)
7. C/C(=C\CNc1ncnc2c1ncn2C1CCCCO1)COP(=O)(O)O (stereo not drawn)

["> 100 µM (inactive)", "> 100 µM (inactive)", "> 100 µM (inactive)", "82.6 µM (inactive)", "13.4 µM (inactive)", "> 100 µM (inactive)", "> 100 µM (inactive)"]
